B1: PhoQ; a variant is named by its letters at X, in order, P23837 (parent)
chain: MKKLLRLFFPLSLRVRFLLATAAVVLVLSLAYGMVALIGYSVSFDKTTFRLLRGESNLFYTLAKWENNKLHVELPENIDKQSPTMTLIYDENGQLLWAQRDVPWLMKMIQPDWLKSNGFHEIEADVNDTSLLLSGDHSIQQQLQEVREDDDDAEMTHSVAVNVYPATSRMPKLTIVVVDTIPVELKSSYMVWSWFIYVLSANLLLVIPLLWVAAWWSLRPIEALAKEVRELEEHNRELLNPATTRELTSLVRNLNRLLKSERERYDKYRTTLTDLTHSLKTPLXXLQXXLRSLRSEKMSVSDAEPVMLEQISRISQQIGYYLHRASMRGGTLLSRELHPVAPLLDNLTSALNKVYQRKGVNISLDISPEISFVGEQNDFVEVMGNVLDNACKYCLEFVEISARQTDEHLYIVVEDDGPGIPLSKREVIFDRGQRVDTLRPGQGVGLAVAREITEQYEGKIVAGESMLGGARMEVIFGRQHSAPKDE

Variants of: B1
Test: enrichment ratio after two sorts for PhoP signalling (ratio (wild type AVST 3.29)); higher = more functional
Details: with PhoP (E. coli)
Whole data set: some 140,000 sequences, median “enrichment ratio after two sorts for PhoP signalling” near 0, cut for the highest 2% near 11. The entries come from a sample that favours the highest values as a whole.

variant.designation | enrichment ratio
TMAW | ≤ 0.25
RICT | ≤ 0.25
VLAN | ≤ 0.25
SIWN | 4.21
QVYW | ≤ 0.25
YLVR | ≤ 0.25
NSAN | ≤ 0.25
SNCT | 8.8
IPTS | ≤ 0.25
MELE | ≤ 0.25
EESR | ≤ 0.25
ANCT | 21
HSVK | ≤ 0.25
AMPI | 0.985
GNNL | 2.95
RGLT | ≤ 0.25
TEYE | ≤ 0.25
EHTD | ≤ 0.25
THCY | 1.87
SAFP | ≤ 0.25
RHML | ≤ 0.25
KYAN | ≤ 0.25
EQCT | ≤ 0.25
RASR | ≤ 0.25
DHDD | ≤ 0.25
AGLA | 4.99
AMCY | 25.2
SPGC | ≤ 0.25
HMWA | ≤ 0.25
MSNW | ≤ 0.25
AHCY | 12.7
SKVD | ≤ 0.25
LAPE | ≤ 0.25
AICT | 18
WSTV | ≤ 0.25
TELE | 11.2
NGLA | ≤ 0.25
LTSI | ≤ 0.25
TEYG | 1.95
SRAN | ≤ 0.25
EHCK | ≤ 0.25
SLAN | 13.8
IMPT | ≤ 0.25
NHHA | ≤ 0.25
YAPD | ≤ 0.25
AHCT | ≤ 0.25

meta.source: a collection of fitness landscapes (doi:10.1126/science.1257360)
